target.or.system: Receptor-interacting serine/threonine-protein kinase 3 (Homo sapiens, UniProt Q9Y572); further: in the data inactive means no Kd found up to 30 µM
Sequence (Q9Y572 whole entry): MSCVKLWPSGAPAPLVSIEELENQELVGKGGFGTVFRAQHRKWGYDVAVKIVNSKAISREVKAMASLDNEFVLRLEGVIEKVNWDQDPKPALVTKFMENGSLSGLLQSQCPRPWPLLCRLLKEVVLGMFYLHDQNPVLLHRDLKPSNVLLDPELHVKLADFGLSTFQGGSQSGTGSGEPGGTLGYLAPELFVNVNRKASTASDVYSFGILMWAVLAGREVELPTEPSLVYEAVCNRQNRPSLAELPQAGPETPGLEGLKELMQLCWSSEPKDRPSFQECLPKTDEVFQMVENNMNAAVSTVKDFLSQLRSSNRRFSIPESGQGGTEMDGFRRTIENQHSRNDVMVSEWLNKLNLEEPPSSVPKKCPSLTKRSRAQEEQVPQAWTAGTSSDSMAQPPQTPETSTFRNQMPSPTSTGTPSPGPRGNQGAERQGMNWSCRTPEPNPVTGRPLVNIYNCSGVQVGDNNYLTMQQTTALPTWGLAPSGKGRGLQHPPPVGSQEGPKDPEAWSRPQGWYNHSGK
Active and inactive are the calls of the source.
Select the matching outcome among active, inactive

Before answering, review these 3 worked examples.
CNC(=O)c1cc(Oc2ccc(NC(=O)Nc3ccc(Cl)c(C(F)(F)F)c3)c(F)c2)ccn1 [REGORAFENIB] : active
CN1CCC(COc2cnc(-c3cccc(Cn4nc(-c5cccc(C#N)c5)ccc4=O)c3)nc2)CC1 [TEPOTINIB] : inactive
CC(=O)Nc1cccc(-n2c(=O)n(C3CC3)c(=O)c3c(Nc4ccc(I)cc4F)n(C)c(=O)c(C)c32)c1 [TRAMETINIB] : inactive

Consider the additional molecule presented here.
### Prompt Hi, sorry to bother you, what did the test record for Cc1cc2c(F)c(Oc3ncnn4cc(OC[C@@H](C)OC(=O)[C@H](C)N)c(C)c34)ccc2[nH]1 [BRIVANIB ALANINATE] ?
### Response inactive

----------
target.or.system: UniProt:Q14289
Sequence (Q14289 whole entry): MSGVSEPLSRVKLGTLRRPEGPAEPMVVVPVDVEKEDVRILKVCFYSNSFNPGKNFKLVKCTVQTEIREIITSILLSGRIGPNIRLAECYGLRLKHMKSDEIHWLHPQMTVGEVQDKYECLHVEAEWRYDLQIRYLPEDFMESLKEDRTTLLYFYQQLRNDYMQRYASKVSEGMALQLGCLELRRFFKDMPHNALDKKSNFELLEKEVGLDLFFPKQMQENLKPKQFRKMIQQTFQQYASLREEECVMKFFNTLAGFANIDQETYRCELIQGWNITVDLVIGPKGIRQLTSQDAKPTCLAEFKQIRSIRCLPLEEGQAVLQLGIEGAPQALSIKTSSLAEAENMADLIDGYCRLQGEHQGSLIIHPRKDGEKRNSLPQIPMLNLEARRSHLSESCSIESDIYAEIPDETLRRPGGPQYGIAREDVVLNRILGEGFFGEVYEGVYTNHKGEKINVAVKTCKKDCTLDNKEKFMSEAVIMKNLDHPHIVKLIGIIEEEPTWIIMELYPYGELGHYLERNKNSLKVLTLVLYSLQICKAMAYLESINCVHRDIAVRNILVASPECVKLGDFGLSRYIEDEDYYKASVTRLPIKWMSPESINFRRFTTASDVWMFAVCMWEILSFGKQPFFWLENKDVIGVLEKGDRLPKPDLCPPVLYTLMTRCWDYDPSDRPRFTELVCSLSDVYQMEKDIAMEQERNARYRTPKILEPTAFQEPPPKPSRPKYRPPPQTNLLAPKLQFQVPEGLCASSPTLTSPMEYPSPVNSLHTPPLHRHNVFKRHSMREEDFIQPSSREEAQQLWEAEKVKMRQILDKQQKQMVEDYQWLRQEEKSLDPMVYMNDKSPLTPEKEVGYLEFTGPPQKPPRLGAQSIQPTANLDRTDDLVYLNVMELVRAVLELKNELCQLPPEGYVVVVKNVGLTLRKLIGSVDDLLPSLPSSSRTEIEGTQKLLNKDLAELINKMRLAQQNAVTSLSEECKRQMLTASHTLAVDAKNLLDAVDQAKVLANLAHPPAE
Calls of active or inactive are those of the source.
Please state which outcome applies, choosing from active, inactive

Please review the following examples before continuing.
CCc1cnn2c(NCc3ccc[n+]([O-])c3)cc(N3CCCC[C@H]3CCO)nc12 [DINACICLIB] : inactive
COc1cc(N2CCC(N3CCN(C)CC3)CC2)ccc1Nc1ncnc(Nc2ccccc2S(=O)(=O)C(C)C)n1 [ASP-3026] : active
CC(=O)Nc1cccc(-n2c(=O)n(C3CC3)c(=O)c3c(Nc4ccc(I)cc4F)n(C)c(=O)c(C)c32)c1 [TRAMETINIB] : inactive

### Prompt Write down the call the test reported for this compound. Item: CNC(=O)CN1CCC(Oc2cc3c(Nc4cccc(Cl)c4F)ncnc3cc2OC)CC1 [SAPITINIB]
### Response inactive

### Prompt Hi, sorry to bother you, what did the test record for O=C(c1ccc(F)c(F)c1Nc1ccc(I)cc1F)N1CC(O)([C@@H]2CCCCN2)C1 [COBIMETINIB] ?
### Response inactive

### Prompt Give the logged outcome of this assay for the following compound: O=C1NC(=O)/C(=C/c2ccc3nccc(-c4ccncc4)c3c2)S1 [GSK-1059615]
### Response inactive

### Prompt Recorded test outcome, item C[C@@H](Nc1cc(F)cc(F)c1)c1cc(C(=O)N(C)C)cc2c(=O)cc(N3CCOCC3)oc12 [AZD-8186]
### Response inactive

### Prompt Per the records of this test, what outcome belongs to O=C(Nc1ccc(-c2ccnc(Nc3ccc(N4CCOCC4)cc3)n2)cc1)C1CCCN1 (stereo not given) [XL-019] ?
### Response inactive

----------
target.or.system: Ephrin type-A receptor 4 (Homo sapiens, UniProt P54764); further: in the data inactive means no Kd found up to 30 µM
Sequence (P54764 whole entry): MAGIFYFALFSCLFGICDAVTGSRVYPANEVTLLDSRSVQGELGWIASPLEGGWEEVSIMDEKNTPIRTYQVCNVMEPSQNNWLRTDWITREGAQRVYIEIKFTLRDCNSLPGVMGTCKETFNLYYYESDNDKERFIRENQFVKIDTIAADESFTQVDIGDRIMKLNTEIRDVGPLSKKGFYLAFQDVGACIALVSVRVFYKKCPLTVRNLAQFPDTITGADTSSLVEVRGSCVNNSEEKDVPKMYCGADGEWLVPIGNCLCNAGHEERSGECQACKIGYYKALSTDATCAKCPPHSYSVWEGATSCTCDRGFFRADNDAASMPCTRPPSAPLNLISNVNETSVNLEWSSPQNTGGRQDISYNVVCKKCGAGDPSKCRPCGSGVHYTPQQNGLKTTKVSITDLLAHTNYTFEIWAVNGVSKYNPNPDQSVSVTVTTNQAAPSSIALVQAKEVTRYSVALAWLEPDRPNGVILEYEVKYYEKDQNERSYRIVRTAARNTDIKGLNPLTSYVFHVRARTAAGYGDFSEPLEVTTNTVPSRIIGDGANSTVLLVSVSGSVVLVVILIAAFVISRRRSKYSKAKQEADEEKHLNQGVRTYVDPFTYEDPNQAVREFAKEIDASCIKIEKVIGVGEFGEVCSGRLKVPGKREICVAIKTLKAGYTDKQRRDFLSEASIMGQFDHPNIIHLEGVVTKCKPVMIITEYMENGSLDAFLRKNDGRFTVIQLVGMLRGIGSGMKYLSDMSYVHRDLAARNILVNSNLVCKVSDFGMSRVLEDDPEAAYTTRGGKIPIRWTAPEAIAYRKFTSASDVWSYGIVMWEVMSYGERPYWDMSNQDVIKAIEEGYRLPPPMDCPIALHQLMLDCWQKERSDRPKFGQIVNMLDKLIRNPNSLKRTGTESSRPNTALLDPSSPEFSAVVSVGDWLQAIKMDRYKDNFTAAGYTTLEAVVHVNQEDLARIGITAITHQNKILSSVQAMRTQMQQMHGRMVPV
The source made the active and inactive calls.
The categories you may choose from are YES = active, NO = inactive

Cn1cc(-c2ccc3nnc(C(F)(F)c4ccc5ncccc5c4)n3n2)cn1 : NO
COc1cc2nccc(Oc3ccc(NC(=O)Nc4cc(C)on4)c(Cl)c3)c2cc1OC : YES
CN(C)C(=O)c1cc2cnc(Nc3ccc(N4CCNCC4)cn3)nc2n1C1CCCC1 : NO

### Prompt Would you mind telling me which call this test gave CN1N=C(N)c2cn([C@@H]3O[C@H](COP(=O)(O)O)[C@@H](O)[C@H]3O)c3ncnc1c23 [TRICIRIBINE PHOSPHATE] ?
### Response NO
